Values from ChEMBL document CHEMBL1914445

Biological target: Cholinesterase (Homo sapiens, UniProt P06276)
Sequence (P06276 whole entry): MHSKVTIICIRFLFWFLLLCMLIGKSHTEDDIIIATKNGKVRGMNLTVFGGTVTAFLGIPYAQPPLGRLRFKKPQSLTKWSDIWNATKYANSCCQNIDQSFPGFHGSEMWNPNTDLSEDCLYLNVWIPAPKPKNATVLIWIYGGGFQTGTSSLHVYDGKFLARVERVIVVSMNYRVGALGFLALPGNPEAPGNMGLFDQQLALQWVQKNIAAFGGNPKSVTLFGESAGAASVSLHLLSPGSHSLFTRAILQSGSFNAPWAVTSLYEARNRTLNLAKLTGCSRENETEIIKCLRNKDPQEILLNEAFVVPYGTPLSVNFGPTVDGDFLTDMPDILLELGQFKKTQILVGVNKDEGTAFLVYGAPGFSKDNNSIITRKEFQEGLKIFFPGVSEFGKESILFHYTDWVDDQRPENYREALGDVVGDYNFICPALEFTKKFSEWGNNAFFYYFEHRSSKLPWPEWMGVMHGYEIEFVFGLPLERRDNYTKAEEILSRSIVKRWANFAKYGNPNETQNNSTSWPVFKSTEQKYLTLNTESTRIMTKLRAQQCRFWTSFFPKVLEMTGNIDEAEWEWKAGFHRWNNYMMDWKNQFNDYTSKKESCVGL
Assay: Inhibition of human serum BuChE using butyrylthiocholine as substrate by Ellman's assay
property: pIC50
One number for each entry, as −log10 of the molar value.

INSERT INTO measurements (structure_string, recorded_measurement) VALUES
  ('Nc1c2c(nc3oc(-c4ccc(Cl)cc4)cc13)CCCC2', 4.58),
  ('Cc1ccc(-c2cc3c(N)c4c(nc3o2)CCCC4)cc1', 3.92),
  ('Nc1c2c(nc3c1cc(-c1ccccc1)n3-c1ccccc1)CCCC2', 5.07);

Turning now to a further compound:
Record Nc1c2c(nc3oc(-c4ccccc4)cc13)CCCC2 , field pIC50: 5.42
